biological target: HLA-B*15:42; assay: IEDB peptide-MHC binding, purified MHC/competitive/fluorescence; filed as Kd, often an IC50 or EC50 that approximates it; bounds were set here for any values at or beyond the usual limits of such assays; conditions: source organism: Bacillus cereus G9241
metric: Kd

Query: Which Kd value belongs to `YYKKTFSAL` ?
Reply: ≥ 5 µM

* * *

molecular target: HLA-B*18:01; assay: IEDB peptide-MHC binding, purified MHC/competitive/radioactivity; filed as Kd, often an IC50 or EC50 that approximates it; bounds were set here for any values at or beyond the usual limits of such assays; details: source organism: Lymphocytic choriomeningitis virus (strain Traub)
metric: Kd

Query: So what Kd did `EEKGISGTS` get with HLA-B*18:01?
Reply: ≥ 77.5 µM
